- Target System: CDK9/CycT1 (Homo sapiens)
- Construct: Recombinant full-length His-tagged human CDK9 and CycT1; purchased Life Technologies PV4131; host or cells: insect cells
- Sequence (P50750 whole entry): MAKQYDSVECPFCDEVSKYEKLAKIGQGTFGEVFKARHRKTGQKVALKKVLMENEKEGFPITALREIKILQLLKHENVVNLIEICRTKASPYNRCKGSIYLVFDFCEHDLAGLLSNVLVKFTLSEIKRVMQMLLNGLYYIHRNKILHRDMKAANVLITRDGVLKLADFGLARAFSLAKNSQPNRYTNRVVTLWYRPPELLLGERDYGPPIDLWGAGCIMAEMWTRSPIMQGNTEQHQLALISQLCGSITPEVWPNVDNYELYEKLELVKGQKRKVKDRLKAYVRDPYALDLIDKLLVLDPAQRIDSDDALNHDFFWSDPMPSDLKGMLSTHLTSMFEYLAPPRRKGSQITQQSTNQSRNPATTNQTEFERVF
- Sequence (O60563 whole entry partner): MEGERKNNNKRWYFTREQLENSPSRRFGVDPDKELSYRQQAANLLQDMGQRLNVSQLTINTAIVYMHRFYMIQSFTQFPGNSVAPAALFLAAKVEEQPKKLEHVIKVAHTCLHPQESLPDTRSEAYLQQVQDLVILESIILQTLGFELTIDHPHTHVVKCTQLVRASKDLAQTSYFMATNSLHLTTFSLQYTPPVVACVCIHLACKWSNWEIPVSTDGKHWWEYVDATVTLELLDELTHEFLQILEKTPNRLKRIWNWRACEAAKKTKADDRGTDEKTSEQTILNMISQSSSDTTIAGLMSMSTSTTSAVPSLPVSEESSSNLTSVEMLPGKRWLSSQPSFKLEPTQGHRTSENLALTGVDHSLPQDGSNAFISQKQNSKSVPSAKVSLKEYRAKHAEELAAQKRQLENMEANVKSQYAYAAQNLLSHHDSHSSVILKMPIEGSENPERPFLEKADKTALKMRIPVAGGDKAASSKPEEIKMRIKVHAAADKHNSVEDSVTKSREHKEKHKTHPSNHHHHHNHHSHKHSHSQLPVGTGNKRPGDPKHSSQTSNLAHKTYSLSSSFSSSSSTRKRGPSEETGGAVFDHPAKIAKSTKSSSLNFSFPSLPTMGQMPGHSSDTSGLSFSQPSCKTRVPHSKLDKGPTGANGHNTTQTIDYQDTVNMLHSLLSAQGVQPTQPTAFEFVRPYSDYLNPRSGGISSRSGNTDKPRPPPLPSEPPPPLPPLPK
- Measurement Protocol: CDK9/CycT1 high ATP kinase assay (TR-FRET, 2 mM ATP)
- Assay type: biochemical
- Conditions Used: 2 mM ATP (high ATP); median; read-out: CDK9/CyclinT1, 2 mM ATP (high ATP), IC50 (median)
# strict inequality: IC50 < 7 µM yields TRUE, everything else yields FALSE

Answered examples (3):
Cn1cc(-c2cnn3c(NCc4nc5c(F)c(F)ccc5[nH]4)nc(N4CCOCC4)nc23)cn1 [Example 418]    FALSE
FC(F)(F)c1ccc2[nH]c(CNc3nc(N4CCOCC4)nc4c(Br)cnn34)nc2c1 [Example 339]    FALSE
OC[C@@H]1CCCCN1c1nc(NCc2nc3c(F)c(F)ccc3[nH]2)n2ncc(C3CC3)c2n1 [Example 184]    TRUE

Would you kindly verify if IC50 of Fc1cc(-c2nnc(CNc3nc(N4CCOCC4)nc4c(Br)cnn34)[nH]2)cc(F)c1F [Example 100] is strictly less than 7 µM?
TRUE
